Examples of binders with documented IC50 of in vitro proliferation, DoHH2 cells (MTT, 72 h) follow.
# TARGET OR TEST SYSTEM: T1, human CD79B on the surface of cells (DoHH2 / DOHH-2, WSU-DLCL2) (human, UniProt P40259 29-229)
# T1 sequence (looked up): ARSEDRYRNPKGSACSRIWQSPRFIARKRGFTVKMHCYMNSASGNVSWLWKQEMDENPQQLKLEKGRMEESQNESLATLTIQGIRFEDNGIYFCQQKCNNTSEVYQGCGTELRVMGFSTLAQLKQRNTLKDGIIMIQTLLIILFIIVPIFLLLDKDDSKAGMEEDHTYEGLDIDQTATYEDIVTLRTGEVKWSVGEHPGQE
# ASSAY SUMMARY: cell-based or functional assay
PROPERTY: IC50 of in vitro proliferation, DoHH2 cells (MTT, 72 h) (ng/mL)

# BINDER, UNITS TEXT, REPORTED VALUE
measured = [
    ("ADC-7 (antibody, human IgG1, kappa, V domains shown, compound D coupled to cysteines after TCEP reduction; positions not given; compound D (exatecan-type linker-drug, Topo I inhibitor) coupled to cysteines after TCEP reduction; positions not given; mean n=5.84 per antibody) VH: EVQLVQSGAEVKKPGSSVKVSCKASGSSFSSYGINWVKQAPGQGLEWIGEIFPRSGNTYYNEKFEGRATLTADKSTSTAYMELRSLRSEDTAVYYCAKGDLGDFDYWGQGTTVTVSS VL: DFVMTQTPLSLPVTPGEPASISCRSSQSIVHSDGNTYFEWYLQKPGQSPKLLIYKVSNRFSGVPDRFSGSGSGTDFTLKISRVEAEDVGVYYCFQGSHVPWTFGGGTKVEIKR", "ng/mL", 2),
    ("ADC-3 (antibody, human IgG1, kappa, V domains shown, MC-vc-PAB-MMAE coupled to cysteines after TCEP reduction; positions not given; MC-vc-PAB-MMAE coupled to cysteines after TCEP reduction; positions not given; mean n=3.09 per antibody, Antibody-drug conjugate of hAb015-10; DAR 3.09; also called hAb015-10-cys-MC-vc-PAB-MMAE) VH: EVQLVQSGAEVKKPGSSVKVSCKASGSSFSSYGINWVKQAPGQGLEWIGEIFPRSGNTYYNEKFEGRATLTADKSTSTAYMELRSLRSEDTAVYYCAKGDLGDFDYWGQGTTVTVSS VL: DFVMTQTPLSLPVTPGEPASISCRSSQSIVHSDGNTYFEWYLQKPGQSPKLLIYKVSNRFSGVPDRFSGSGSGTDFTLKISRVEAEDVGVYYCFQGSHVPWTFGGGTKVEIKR", "ng/mL", 3.3),
    ("ADC-5 (antibody, human IgG1, kappa, V domains shown, compound D coupled to cysteines after TCEP reduction; positions not given; compound D (exatecan-type linker-drug, Topo I inhibitor) coupled to cysteines after TCEP reduction; positions not given; mean n=1.81 per antibody, Antibody-drug conjugate of hAb015-10; also called HAB015-10-cys-D, with a DAR value of about 2) VH: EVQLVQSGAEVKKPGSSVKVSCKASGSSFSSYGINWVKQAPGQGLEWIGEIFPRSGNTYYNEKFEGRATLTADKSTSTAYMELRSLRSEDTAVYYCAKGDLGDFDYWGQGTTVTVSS VL: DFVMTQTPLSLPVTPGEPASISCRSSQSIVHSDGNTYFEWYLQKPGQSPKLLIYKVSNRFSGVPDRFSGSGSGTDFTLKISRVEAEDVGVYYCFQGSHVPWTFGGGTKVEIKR", "ng/mL", 8.5),
    ("ADC-8 (antibody, human IgG1, kappa, V domains shown, MC-VC-PAB-MMAE coupled to cysteines after TCEP reduction; positions not given; MC-VC-PAB-MMAE coupled to cysteines after TCEP reduction; positions not given; mean n=3.59 per antibody) VH: EVQLVESGGGLVQPGGSLRLSCAASGYTFSSYWIEWVRQAPGKGLEWIGEILPGGGDTNYNEIFKGRATFSADTSKNTAYLQMNSLRAEDTAVYYCTRRVPIRLDYWGQGTLVTVSS VL: DIQLTQSPSSLSASVGDRVTITCKASQSVDYEGDSFLNWYQQKPGKAPKLLIYAASNLESGVPSRFSGSGSGTDFTLTISSLQPEDFATYYCQQSNEDPLTFGQGTKVEIKR", "ng/mL", 80.6),
    ("ADC-6 (antibody, human IgG1, kappa, V domains shown, compound D coupled to cysteines after TCEP reduction; positions not given; compound D (exatecan-type linker-drug, Topo I inhibitor) coupled to cysteines after TCEP reduction; positions not given; mean n=3.46 per antibody) VH: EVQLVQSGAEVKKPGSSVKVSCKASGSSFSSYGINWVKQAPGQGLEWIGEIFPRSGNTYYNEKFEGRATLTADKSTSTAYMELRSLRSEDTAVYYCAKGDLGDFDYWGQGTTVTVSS VL: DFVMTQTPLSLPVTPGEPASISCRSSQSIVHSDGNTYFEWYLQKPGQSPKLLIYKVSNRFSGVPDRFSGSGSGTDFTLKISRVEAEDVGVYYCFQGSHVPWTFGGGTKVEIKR", "ng/mL", 3.3),
]
